test system: SW-620 colon; experiment: NCI tumour cell line growth inhibition, 48 h
Can you tell me TGI for the items I'm about to list?

Exercise: Consider the compound shown here: COC1CC(OC2C(C)OC(OC3C(C)OC(OC4C(C)OC(O[C@H]5CC[C@@]6(C)C(=CC[C@]7(O)[C@@H]6C[C@@H](OC(C)=O)[C@@]6(C)[C@]7(O)CC[C@@]6(O)C(C)=O)C5)CC4OC)CC3OC)CC2OC)OC(C)C1O (stereo partly drawn) What is its recorded TGI?
Solution: > 25 µM

Exercise: Consider the compound shown here: `COc1nc(N)c(NC(C)=O)c(=O)n1C` What is its recorded TGI?
Solution: > 100 µM

Exercise: Consider the compound shown here: `CN(/N=C\c1ccnc2ccccc12)c1ccc([N+](=O)[O-])cc1` What is its recorded TGI?
Solution: > 100 µM

Exercise: Consider the compound shown here: `O=C(NNC(=S)NC1CCCCC1)C12CC3CC(CC(C3)C1)C2` What is its recorded TGI?
Solution: > 100 µM

Exercise: Consider the compound shown here: `C=CCc1c(O)c2nsnc2c2nsnc12` What is its recorded TGI?
Solution: > 10 µM

Exercise: Consider the compound shown here: `CC(=O)O[C@H]1C(=O)[C@@]2(C)[C@H]([C@H](OC(=O)c3ccccc3)[C@]3(O)C[C@H](OC(=O)[C@H](O)[C@@H](NC(=O)c4ccco4)c4ccccc4)C(C)=C1C3(C)C)[C@]1(OC(C)=O)CO[C@@H]1C[C@@H]2O` What is its recorded TGI?
Solution: > 12.5 µM

Exercise: Consider the compound shown here: `CCc1nc2ccc(N=Nc3c(O)ccc4ccccc34)cc2[nH]1` What is its recorded TGI?
Solution: 54.4 µM

Exercise: Consider the compound shown here: `CCCCCc1c(CCCC)c(=O)[nH]c2nc(NC(=O)CCCC)ccc12` What is its recorded TGI?
Solution: > 100 µM

Exercise: Consider the compound shown here: [B-][P+](CC[P+]1([B-])[C@@H](C)[C@@H](O)[C@H](O)[C@@H]1C)(c1ccccc1)c1ccccc1OC (stereo partly drawn) What is its recorded TGI?
Solution: 31.9 µM

Exercise: Consider the compound shown here: `O=C(c1ccccc1)N1CCC(CC2(c3cc4ccccc4[nH]3)OCCO2)CC1` What is its recorded TGI?
Solution: > 100 µM

Exercise: Consider the compound shown here: C/C=C1/CC(C)C(C)(O)C(=O)OCC2C(O)CN3CCC(OC1=O)C23 (stereo not drawn) What is its recorded TGI?
Solution: > 100 µM

Exercise: Consider the compound shown here: `CCCSc1ccc2[nH]c(N3C(=O)/C(=C/c4ccc(SC)cc4)N=C3c3ccccc3)cc2c1` What is its recorded TGI?
Solution: > 50 µM

Exercise: Consider the compound shown here: `Oc1c(Cl)cc(Cl)c2ccc(Cn3cc(-c4ccc(C(F)(F)F)cc4)nn3)nc12` What is its recorded TGI?
Solution: 1.83 µM

Exercise: Consider the compound shown here: `CCCCCCCCCC[C@H](O)[C@H](O)CC[C@@H](O)[C@H]1CC[C@@H]([C@H]2CC[C@H](CCCCCCC[C@@H](O)CC3=C[C@H](C)OC3=O)O2)O1` What is its recorded TGI?
Solution: > 100 µM

Exercise: Consider the compound shown here: CCOP(=O)(OCC)C(NC(=O)C(C(F)(F)F)C(F)(F)F)c1ccccc1 (stereo not drawn) What is its recorded TGI?
Solution: > 100 µM

Exercise: Consider the compound shown here: `CCCCCC/C=C\CCCCCCCCCC1=C(CN2CCN(C)CC2)C(=O)C=C(OC)C1=O` What is its recorded TGI?
Solution: 3.38 µM

Exercise: Consider the compound shown here: O=C(Nc1ccc(Cl)cc1Cl)OC(Cn1cncn1)c1ccc(Cl)cc1Cl (stereo not drawn) What is its recorded TGI?
Solution: 30.4 µM

Exercise: Consider the compound shown here: `COC(=O)c1cc(NC(=O)Cc2c[nH]c3ccccc23)cn1C` What is its recorded TGI?
Solution: > 100 µM
